What bioavailability was measured for each of the following?
experiment: Oral bioavailability in rat at 10 mg/kg, po administered as a suspension in 1% aqueous methylcellulose; type: ADME, organism-based; settings: in vivo
Kindly answer with a numeric value in %, unit omitted.

*Q* // query bioavailability value for entry O=C1Nc2ncccc2C2(CCN(C(=O)N[C@@H]3CC[C@@H](c4cccc(F)c4F)Cn4c(CC(F)(F)F)cnc43)CC2)O1
*A* 33

*Q* // query bioavailability value for entry CC1(c2cnc3n2C[C@H](c2cccc(F)c2F)CC[C@H]3NC(=O)N2CCC3(CC2)OC(=O)Nc2ncccc23)CCCO1 (some centres undefined)
*A* 8

*Q* // query bioavailability value for entry O=C(N[C@@H]1CC[C@@H](c2cccc(F)c2F)Cn2c(CC(F)(F)F)cnc21)N1CCC2(CC1)C(=O)Nc1ncccc12
*A* 47

*Q* // query bioavailability value for entry COCc1cnc2n1C[C@H](c1cccc(F)c1F)CC[C@H]2NC(=O)N1CCC2(CC1)OC(=O)Nc1ncccc12
*A* 15

*Q* // query bioavailability value for entry O=C(N[C@@H]1CC[C@@H](c2cccc(F)c2F)Cn2c(C3CC3)nnc21)N1CCC(n2c(=O)[nH]c3ncccc32)CC1
*A* 2

*Q* // query bioavailability value for entry O=C(N[C@@H]1CC[C@@H](c2cccc(F)c2F)Cn2c(CC(F)(F)F)cnc21)N1CCC(n2c(=O)[nH]c3ncccc32)CC1
*A* 35

*Q* // query bioavailability value for entry COC(C)(C)c1cnc2n1C[C@H](c1cccc(F)c1F)CC[C@H]2NC(=O)N1CCC2(CC1)OC(=O)Nc1ncccc12
*A* 16

*Q* // query bioavailability value for entry CC(C)(O)c1cnc2n1C[C@H](c1cccc(F)c1F)CC[C@H]2NC(=O)N1CCC2(CC1)OC(=O)Nc1ncccc12
*A* 3

----------
target: Calcitonin gene-related peptide type 1 receptor (Homo sapiens, UniProt O60894+Q16602); assay: Antagonist activity at CGRP receptor assessed as inhibition of CGRP-stimulated cAMP production by cell based assay in presence of 50% human serum; assay type: functional
Sequence (Q16602 whole entry, one chain of several): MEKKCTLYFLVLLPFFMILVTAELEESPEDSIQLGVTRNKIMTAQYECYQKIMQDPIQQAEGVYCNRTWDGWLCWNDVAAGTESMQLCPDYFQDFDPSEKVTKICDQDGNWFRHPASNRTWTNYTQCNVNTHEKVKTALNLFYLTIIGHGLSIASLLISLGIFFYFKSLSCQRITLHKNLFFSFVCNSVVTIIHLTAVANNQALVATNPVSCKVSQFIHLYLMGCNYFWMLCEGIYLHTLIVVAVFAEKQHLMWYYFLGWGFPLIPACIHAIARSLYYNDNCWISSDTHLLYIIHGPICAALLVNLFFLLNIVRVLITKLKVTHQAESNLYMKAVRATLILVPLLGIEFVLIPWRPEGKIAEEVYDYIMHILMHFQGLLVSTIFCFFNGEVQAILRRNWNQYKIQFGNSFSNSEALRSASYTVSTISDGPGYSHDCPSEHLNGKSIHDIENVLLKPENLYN
PROPERTY LABEL: IC50 (nM)
Kindly answer with a numeric value in nM, unit omitted.

*Q* Test system Calcitonin gene-related peptide type 1 receptor (Homo sapiens, UniProt O60894+Q16602); read-out IC50; what value for CNCCc1cnc2n1C[C@H](c1cccc(F)c1F)CC[C@H]2NC(=O)N1CCC(n2c(=O)[nH]c3ncccc32)CC1 ?
*A* 15

*Q* Test system Calcitonin gene-related peptide type 1 receptor (Homo sapiens, UniProt O60894+Q16602); read-out IC50; what value for COCc1cnc2n1C[C@H](c1cccc(F)c1F)CC[C@H]2NC(=O)N1CCC(n2c(=O)[nH]c3ncccc32)CC1 ?
*A* 1.9

*Q* Test system Calcitonin gene-related peptide type 1 receptor (Homo sapiens, UniProt O60894+Q16602); read-out IC50; what value for O=C(N[C@@H]1CC[C@@H](c2cccc(F)c2F)Cn2c(-c3ccccc3)cnc21)N1CCC(n2c(=O)[nH]c3ncccc32)CC1 ?
*A* 34

*Q* Test system Calcitonin gene-related peptide type 1 receptor (Homo sapiens, UniProt O60894+Q16602); read-out IC50; what value for COC(C)(C)c1cnc2n1C[C@H](c1cccc(F)c1F)CC[C@H]2NC(=O)N1CCC2(CC1)OC(=O)Nc1ncccc12 ?
*A* 0.63

*Q* Test system Calcitonin gene-related peptide type 1 receptor (Homo sapiens, UniProt O60894+Q16602); read-out IC50; what value for O=C(N[C@@H]1CC[C@@H](c2cccc(F)c2F)Cn2cc(CC(F)(F)F)nc21)N1CCC(n2c(=O)[nH]c3ncccc32)CC1 ?
*A* 33

*Q* Test system Calcitonin gene-related peptide type 1 receptor (Homo sapiens, UniProt O60894+Q16602); read-out IC50; what value for O=C(N[C@@H]1CC[C@@H](c2cccc(F)c2F)Cn2c(CO)cnc21)N1CCC(n2c(=O)[nH]c3ncccc32)CC1 ?
*A* 12

*Q* Test system Calcitonin gene-related peptide type 1 receptor (Homo sapiens, UniProt O60894+Q16602); read-out IC50; what value for COC(C)(C)c1cnc2n1C[C@H](c1cccc(F)c1F)CC[C@H]2NC(=O)N1CCC2(CC1)C(=O)Nc1ncccc12 ?
*A* 1.4

*Q* Test system Calcitonin gene-related peptide type 1 receptor (Homo sapiens, UniProt O60894+Q16602); read-out IC50; what value for CCC(CC)(OC)c1cnc2n1C[C@H](c1cccc(F)c1F)CC[C@H]2NC(=O)N1CCC2(CC1)OC(=O)Nc1ncccc12 ?
*A* 0.42

*Q* Test system Calcitonin gene-related peptide type 1 receptor (Homo sapiens, UniProt O60894+Q16602); read-out IC50; what value for CCOC(C)(C)c1cnc2n1C[C@H](c1cccc(F)c1F)CC[C@H]2NC(=O)N1CCC2(CC1)OC(=O)Nc1ncccc12 ?
*A* 2.9

*Q* Test system Calcitonin gene-related peptide type 1 receptor (Homo sapiens, UniProt O60894+Q16602); read-out IC50; what value for O=C(N[C@@H]1CC[C@@H](c2cccc(F)c2F)Cn2c(CC(F)(F)F)nnc21)N1CCC2(CC1)C(=O)Nc1ncccc12 ?
*A* 2.7

*Q* Test system Calcitonin gene-related peptide type 1 receptor (Homo sapiens, UniProt O60894+Q16602); read-out IC50; what value for O=C(N[C@@H]1CC[C@@H](c2cccc(F)c2F)Cn2c(C3(C(F)(F)F)CC3)cnc21)N1CCC2(CC1)C(=O)Nc1ncccc12 ?
*A* 8.6

*Q* Test system Calcitonin gene-related peptide type 1 receptor (Homo sapiens, UniProt O60894+Q16602); read-out IC50; what value for CN(C)C(=O)c1cnc2n1C[C@H](c1cccc(F)c1F)CC[C@H]2NC(=O)N1CCC(n2c(=O)[nH]c3ncccc32)CC1 ?
*A* 7.4

*Q* Test system Calcitonin gene-related peptide type 1 receptor (Homo sapiens, UniProt O60894+Q16602); read-out IC50; what value for CC(C)(OCC(F)(F)F)c1cnc2n1C[C@H](c1cccc(F)c1F)CC[C@H]2NC(=O)N1CCC2(CC1)OC(=O)Nc1ncccc12 ?
*A* 13

*Q* Test system Calcitonin gene-related peptide type 1 receptor (Homo sapiens, UniProt O60894+Q16602); read-out IC50; what value for O=C(N[C@@H]1CC[C@@H](c2cccc(F)c2F)Cn2c(CC(F)(F)F)cnc21)N1CCC(n2c(=O)[nH]c3ncccc32)CC1 ?
*A* 2.6

*Q* Test system Calcitonin gene-related peptide type 1 receptor (Homo sapiens, UniProt O60894+Q16602); read-out IC50; what value for O=C(N[C@@H]1CC[C@@H](c2cccc(F)c2F)Cn2cc(CO)nc21)N1CCC(n2c(=O)[nH]c3ncccc32)CC1 ?
*A* 26

----------
test: Aqueous solubility of the compound at pH 7.4; conditions: buffer
PROPERTY LABEL: solubility (µg/mL)
Kindly answer with a numeric value in µg/mL, unit omitted.

*Q* // query solubility value for entry O=C(N[C@@H]1CC[C@@H](c2cccc(F)c2F)CN(CC(F)(F)F)C1=O)N1CCC(n2c(=O)[nH]c3ncccc32)CC1
*A* 30

----------
molecular target: Calcitonin gene-related peptide type 1 receptor (Homo sapiens, UniProt O60894+Q16602); assay: Antagonist activity at CGRP receptor assessed as inhibition of CGRP-stimulated cAMP production by cell based assay; assay type: functional
What IC50 was measured for each of the following?

*Q* // query IC50 value for entry O=C1Nc2ncccc2C2(CCN(C(=O)N[C@@H]3CC[C@@H](c4cccc(F)c4F)Cn4c(CC(F)(F)F)nnc43)CC2)O1
*A* 0.83 nM

*Q* // query IC50 value for entry O=C(N[C@@H]1CC[C@@H](c2cccc(F)c2F)Cn2c(C3(C(F)(F)F)CC3)cnc21)N1CCC2(CC1)C(=O)Nc1ncccc12
*A* 1.4 nM

*Q* // query IC50 value for entry Cc1cnc2n1C[C@H](c1cccc(F)c1F)CC[C@H]2NC(=O)N1CCC(n2c(=O)[nH]c3ncccc32)CC1
*A* 4.1 nM

*Q* // query IC50 value for entry COC(C)(C)c1cnc2n1C[C@H](c1cccc(F)c1F)CC[C@H]2NC(=O)N1CCC(n2c(=O)[nH]c3ncccc32)CC1
*A* 0.31 nM

*Q* // query IC50 value for entry O=C(N[C@@H]1CC[C@@H](c2cccc(F)c2F)Cn2cc(CO)nc21)N1CCC(n2c(=O)[nH]c3ncccc32)CC1
*A* 12 nM

*Q* // query IC50 value for entry CCC(CC)(OC)c1cnc2n1C[C@H](c1cccc(F)c1F)CC[C@H]2NC(=O)N1CCC2(CC1)OC(=O)Nc1ncccc12
*A* 0.25 nM

*Q* // query IC50 value for entry CC(C)(OCC(F)(F)F)c1cnc2n1C[C@H](c1cccc(F)c1F)CC[C@H]2NC(=O)N1CCC2(CC1)OC(=O)Nc1ncccc12
*A* 0.65 nM

*Q* // query IC50 value for entry CC(C)(O)c1cnc2n1C[C@H](c1cccc(F)c1F)CC[C@H]2NC(=O)N1CCC2(CC1)OC(=O)Nc1ncccc12
*A* 0.86 nM

*Q* // query IC50 value for entry CN(C)C(=O)c1cnc2n1C[C@H](c1cccc(F)c1F)CC[C@H]2NC(=O)N1CCC(n2c(=O)[nH]c3ncccc32)CC1
*A* 4.1 nM

*Q* // query IC50 value for entry O=C(N[C@@H]1CC[C@@H](c2cccc(F)c2F)Cn2c(CO)cnc21)N1CCC(n2c(=O)[nH]c3ncccc32)CC1
*A* 7.9 nM

*Q* // query IC50 value for entry CC1(c2cnc3n2C[C@H](c2cccc(F)c2F)CC[C@H]3NC(=O)N2CCC3(CC2)OC(=O)Nc2ncccc23)CCCO1 (some centres not stated)
*A* 0.21 nM

*Q* // query IC50 value for entry COCc1cnc2n1C[C@H](c1cccc(F)c1F)CC[C@H]2NC(=O)N1CCC2(CC1)OC(=O)Nc1ncccc12
*A* 0.61 nM

*Q* // query IC50 value for entry CNCCc1cnc2n1C[C@H](c1cccc(F)c1F)CC[C@H]2NC(=O)N1CCC(n2c(=O)[nH]c3ncccc32)CC1
*A* 12 nM

*Q* // query IC50 value for entry CC(C)c1cnc2n1C[C@H](c1cccc(F)c1F)CC[C@H]2NC(=O)N1CCC(n2c(=O)[nH]c3ncccc32)CC1
*A* 0.62 nM

*Q* // query IC50 value for entry O=C(N[C@@H]1CC[C@@H](c2cccc(F)c2F)Cn2c(C3CC3)nnc21)N1CCC(n2c(=O)[nH]c3ncccc32)CC1
*A* 1.6 nM

*Q* // query IC50 value for entry O=C(N[C@@H]1CC[C@@H](c2cccc(F)c2F)Cn2c(CC(F)(F)F)cnc21)N1CCC(n2c(=O)[nH]c3ncccc32)CC1
*A* 0.37 nM

*Q* // query IC50 value for entry Cc1cn2c(n1)[C@H](NC(=O)N1CCC(n3c(=O)[nH]c4ncccc43)CC1)CC[C@@H](c1cccc(F)c1F)C2
*A* 8.7 nM

*Q* // query IC50 value for entry O=C1Nc2ncccc2C2(CCN(C(=O)N[C@@H]3CC[C@@H](c4cccc(F)c4F)Cn4c(CC(F)(F)F)cnc43)CC2)O1
*A* 0.41 nM

*Q* // query IC50 value for entry COC(C)(C)c1cnc2n1C[C@H](c1cccc(F)c1F)CC[C@H]2NC(=O)N1CCC2(CC1)OC(=O)Nc1ncccc12
*A* 0.24 nM

*Q* // query IC50 value for entry O=C(N[C@@H]1CC[C@@H](c2cccc(F)c2F)Cn2c(CC(F)(F)F)nnc21)N1CCC2(CC1)C(=O)Nc1ncccc12
*A* 2.3 nM

*Q* // query IC50 value for entry COCc1cnc2n1C[C@H](c1cccc(F)c1F)CC[C@H]2NC(=O)N1CCC(n2c(=O)[nH]c3ncccc32)CC1
*A* 0.63 nM

*Q* // query IC50 value for entry CCOC(C)(C)c1cnc2n1C[C@H](c1cccc(F)c1F)CC[C@H]2NC(=O)N1CCC2(CC1)OC(=O)Nc1ncccc12
*A* 0.32 nM
